These measurements were taken from ChEMBL document CHEMBL1133775.

- TEST DESCRIPTION: Selectivity ratio, ratio of Ke value of mu to kappa opioid receptor
MEASURE NAME: Ratio

>>> result_value("N=C(N)c1ccc2[nH]c3c(c2c1)C[C@@]1(O)C2Cc4ccc(O)c5c4[C@@]1(CCN2CC1CC1)[C@H]3O5")
22
>>> result_value("N=C(N)Nc1ccc2[nH]c3c(c2c1)C[C@@]1(O)[C@H]2Cc4ccc(O)c5c4[C@@]1(CCN2CC1CC1)[C@H]3O5")
193
>>> result_value("CSC(=N)Nc1ccc2[nH]c3c(c2c1)C[C@@]1(O)C2Cc4ccc(O)c5c4[C@@]1(CCN2CC1CC1)[C@H]3O5")
33
>>> result_value("CN(C)Cc1ccc2[nH]c3c(c2c1)C[C@@]1(O)C2Cc4ccc(O)c5c4[C@@]1(CCN2CC1CC1)[C@H]3O5")
12
>>> result_value("C[N+](C)(C)Cc1ccc2[nH]c3c(c2c1)C[C@@]1(O)C2Cc4ccc(O)c5c4[C@@]1(CCN2CC1CC1)[C@H]3O5")
6.2
>>> result_value("N#CN/C(N)=N/c1ccc2[nH]c3c(c2c1)C[C@@]1(O)C2Cc4ccc(O)c5c4[C@@]1(CCN2CC1CC1)[C@H]3O5")
5.1
>>> result_value("CC(=N)NCCc1ccc2[nH]c3c(c2c1)C[C@@]1(O)C2Cc4ccc(O)c5c4[C@@]1(CCN2CC1CC1)[C@H]3O5")
27

----------
# IC50 ratio annotations
- SYSTEM UNDER TEST: Mu-type opioid receptor (Cavia porcellus)
- TEST DESCRIPTION: Ratio of the IC50 of mu receptor agonist, Morphine in the presence of compound in GPI divided by the control IC50.
- Assay type: functional
MEASURE NAME: IC50 ratio

>>> result_value("NCc1ccc2[nH]c3c(c2c1)C[C@@]1(O)C2Cc4ccc(O)c5c4[C@@]1(CCN2CC1CC1)[C@H]3O5")
2.6
>>> result_value("CSC(=N)Nc1ccc2[nH]c3c(c2c1)C[C@@]1(O)C2Cc4ccc(O)c5c4[C@@]1(CCN2CC1CC1)[C@H]3O5")
7.4
>>> result_value("C[N+](C)(C)CCc1ccc2[nH]c3c(c2c1)C[C@@]1(O)C2Cc4ccc(O)c5c4[C@@]1(CCN2CC1CC1)[C@H]3O5")
18.5
>>> result_value("CN(C)c1ccc2[nH]c3c(c2c1)C[C@@]1(O)C2Cc4ccc(O)c5c4[C@@]1(CCN2CC1CC1)[C@H]3O5")
3.8
>>> result_value("N=C(N)NCCc1ccc2[nH]c3c(c2c1)C[C@@]1(O)[C@H]2Cc4ccc(O)c5c4[C@@]1(CCN2CC1CC1)[C@H]3O5")
9.1
>>> result_value("N#CN/C(N)=N/Cc1ccc2[nH]c3c(c2c1)C[C@@]1(O)C2Cc4ccc(O)c5c4[C@@]1(CCN2CC1CC1)[C@H]3O5")
6.7
>>> result_value("CN(C)Cc1ccc2[nH]c3c(c2c1)C[C@@]1(O)C2Cc4ccc(O)c5c4[C@@]1(CCN2CC1CC1)[C@H]3O5")
11.2

----------
- SYSTEM UNDER TEST: Mu-type opioid receptor (Cavia porcellus)
- TEST DESCRIPTION: Ratio of the IC50 of mu receptor agonist, Morphine in the presence of compound in GPI divided by the control IC50.
- Format: functional
Classes based on IC50 ratio: band A: < 3; band B: ≥ 3 and < 8; band C: ≥ 8

>>> class_assignment("NCCc1ccc2[nH]c3c(c2c1)C[C@@]1(O)C2Cc4ccc(O)c5c4[C@@]1(CCN2CC1CC1)[C@H]3O5")
"band B"
>>> class_assignment("Nc1ccc2[nH]c3c(c2c1)C[C@@]1(O)C2Cc4ccc(O)c5c4[C@@]1(CCN2CC1CC1)[C@H]3O5")
"band A"
>>> class_assignment("C[N+](C)(C)Cc1ccc2[nH]c3c(c2c1)C[C@@]1(O)C2Cc4ccc(O)c5c4[C@@]1(CCN2CC1CC1)[C@H]3O5")
"band C"
>>> class_assignment("CC(=N)NCc1ccc2[nH]c3c(c2c1)C[C@@]1(O)C2Cc4ccc(O)c5c4[C@@]1(CCN2CC1CC1)[C@H]3O5")
"band C"
>>> class_assignment("CN(C)CCc1ccc2[nH]c3c(c2c1)C[C@@]1(O)C2Cc4ccc(O)c5c4[C@@]1(CCN2CC1CC1)[C@H]3O5")
"band A"
>>> class_assignment("CN1CC[C@]23c4c5ccc(O)c4O[C@H]2c2[nH]c4ccc(NC(=N)N)cc4c2C[C@@]3(O)C1C5")
"band A"
>>> class_assignment("CC(=N)NCCc1ccc2[nH]c3c(c2c1)C[C@@]1(O)C2Cc4ccc(O)c5c4[C@@]1(CCN2CC1CC1)[C@H]3O5")
"band C"
>>> class_assignment("N=C(N)c1ccc2[nH]c3c(c2c1)C[C@@]1(O)C2Cc4ccc(O)c5c4[C@@]1(CCN2CC1CC1)[C@H]3O5")
"band B"
>>> class_assignment("N=C(N)NCc1ccc2[nH]c3c(c2c1)C[C@@]1(O)[C@H]2Cc4ccc(O)c5c4[C@@]1(CCN2CC1CC1)[C@H]3O5")
"band C"
>>> class_assignment("N#CN/C(N)=N/c1ccc2[nH]c3c(c2c1)C[C@@]1(O)C2Cc4ccc(O)c5c4[C@@]1(CCN2CC1CC1)[C@H]3O5")
"band B"
>>> class_assignment("CC(=N)Nc1ccc2[nH]c3c(c2c1)C[C@@]1(O)C2Cc4ccc(O)c5c4[C@@]1(CCN2CC1CC1)[C@H]3O5")
"band B"
>>> class_assignment("N/C(S)=N/c1ccc2[nH]c3c(c2c1)C[C@@]1(O)C2Cc4ccc(O)c5c4[C@@]1(CCN2CC1CC1)[C@H]3O5")
"band B"
>>> class_assignment("C[N+](C)(C)c1ccc2[nH]c3c(c2c1)C[C@@]1(O)C2Cc4ccc(O)c5c4[C@@]1(CCN2CC1CC1)[C@H]3O5")
"band A"
>>> class_assignment("N=C(N)Cc1ccc2[nH]c3c(c2c1)C[C@@]1(O)C2Cc4ccc(O)c5c4[C@@]1(CCN2CC1CC1)[C@H]3O5")
"band A"

----------
- SYSTEM UNDER TEST: Opioid receptors; delta & kappa (Homo sapiens) (UniProt P41145+P41143)
- Sequence (P41143 whole entry, looked up): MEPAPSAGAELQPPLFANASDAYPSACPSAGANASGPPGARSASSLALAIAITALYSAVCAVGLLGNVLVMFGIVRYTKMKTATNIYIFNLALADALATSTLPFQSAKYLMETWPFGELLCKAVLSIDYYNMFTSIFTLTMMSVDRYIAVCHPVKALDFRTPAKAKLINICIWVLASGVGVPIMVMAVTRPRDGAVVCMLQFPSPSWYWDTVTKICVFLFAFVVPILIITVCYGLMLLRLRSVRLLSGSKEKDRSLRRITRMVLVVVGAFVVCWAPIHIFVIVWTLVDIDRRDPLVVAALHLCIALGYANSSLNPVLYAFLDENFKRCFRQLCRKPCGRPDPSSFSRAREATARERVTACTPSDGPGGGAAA
- Sequence (P41145 whole entry, looked up): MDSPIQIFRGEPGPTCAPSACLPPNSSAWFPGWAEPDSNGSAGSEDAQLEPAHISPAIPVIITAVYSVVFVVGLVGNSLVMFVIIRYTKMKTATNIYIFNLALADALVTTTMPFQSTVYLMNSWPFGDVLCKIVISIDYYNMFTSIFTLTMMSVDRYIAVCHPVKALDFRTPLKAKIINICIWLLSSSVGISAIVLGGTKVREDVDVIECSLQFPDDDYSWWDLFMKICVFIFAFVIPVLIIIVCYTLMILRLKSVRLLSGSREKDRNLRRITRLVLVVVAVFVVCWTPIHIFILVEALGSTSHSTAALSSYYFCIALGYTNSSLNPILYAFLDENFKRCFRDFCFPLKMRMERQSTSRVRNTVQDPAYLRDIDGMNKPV
- TEST DESCRIPTION: Selectivity ratio, ratio of Ke value of delta to kappa opioid receptor
- Type: protein assay
MEASURE NAME: Ratio

>>> result_value("N#CN/C(N)=N/c1ccc2[nH]c3c(c2c1)C[C@@]1(O)C2Cc4ccc(O)c5c4[C@@]1(CCN2CC1CC1)[C@H]3O5")
2.9
>>> result_value("N#CN/C(N)=N/Cc1ccc2[nH]c3c(c2c1)C[C@@]1(O)C2Cc4ccc(O)c5c4[C@@]1(CCN2CC1CC1)[C@H]3O5")
2
>>> result_value("NCc1ccc2[nH]c3c(c2c1)C[C@@]1(O)C2Cc4ccc(O)c5c4[C@@]1(CCN2CC1CC1)[C@H]3O5")
0.5
>>> result_value("CC(=N)NCCc1ccc2[nH]c3c(c2c1)C[C@@]1(O)C2Cc4ccc(O)c5c4[C@@]1(CCN2CC1CC1)[C@H]3O5")
65
>>> result_value("N=C(N)NCCc1ccc2[nH]c3c(c2c1)C[C@@]1(O)[C@H]2Cc4ccc(O)c5c4[C@@]1(CCN2CC1CC1)[C@H]3O5")
2

----------
# IC50 ratio annotations
- SYSTEM UNDER TEST: Delta-type opioid receptor (Mus musculus)
- TEST DESCRIPTION: Ratio of the IC50 of delta receptor agonist, [D-Ala-2, D-Leu5]-enkephalin in the presence of compound in MVD divided by the control IC50.
- Type: functional
MEASURE NAME: IC50 ratio

>>> result_value("Nc1ccc2[nH]c3c(c2c1)C[C@@]1(O)C2Cc4ccc(O)c5c4[C@@]1(CCN2CC1CC1)[C@H]3O5")
10.3
>>> result_value("C[N+](C)(C)Cc1ccc2[nH]c3c(c2c1)C[C@@]1(O)C2Cc4ccc(O)c5c4[C@@]1(CCN2CC1CC1)[C@H]3O5")
0.79
>>> result_value("NCCc1ccc2[nH]c3c(c2c1)C[C@@]1(O)C2Cc4ccc(O)c5c4[C@@]1(CCN2CC1CC1)[C@H]3O5")
2.3
>>> result_value("CN(C)c1ccc2[nH]c3c(c2c1)C[C@@]1(O)C2Cc4ccc(O)c5c4[C@@]1(CCN2CC1CC1)[C@H]3O5")
2.4
>>> result_value("CN(C)Cc1ccc2[nH]c3c(c2c1)C[C@@]1(O)C2Cc4ccc(O)c5c4[C@@]1(CCN2CC1CC1)[C@H]3O5")
1.4
>>> result_value("N=C(N)NCCc1ccc2[nH]c3c(c2c1)C[C@@]1(O)[C@H]2Cc4ccc(O)c5c4[C@@]1(CCN2CC1CC1)[C@H]3O5")
30.1
>>> result_value("N#CN/C(N)=N/c1ccc2[nH]c3c(c2c1)C[C@@]1(O)C2Cc4ccc(O)c5c4[C@@]1(CCN2CC1CC1)[C@H]3O5")
12
